- STUDY_TARGET: T1, human complement factor H (human, UniProt P08603 19-1231)
- T1 construct: also called human fH; fH
- T1 sequence (P08603 19-1231 limits assumed): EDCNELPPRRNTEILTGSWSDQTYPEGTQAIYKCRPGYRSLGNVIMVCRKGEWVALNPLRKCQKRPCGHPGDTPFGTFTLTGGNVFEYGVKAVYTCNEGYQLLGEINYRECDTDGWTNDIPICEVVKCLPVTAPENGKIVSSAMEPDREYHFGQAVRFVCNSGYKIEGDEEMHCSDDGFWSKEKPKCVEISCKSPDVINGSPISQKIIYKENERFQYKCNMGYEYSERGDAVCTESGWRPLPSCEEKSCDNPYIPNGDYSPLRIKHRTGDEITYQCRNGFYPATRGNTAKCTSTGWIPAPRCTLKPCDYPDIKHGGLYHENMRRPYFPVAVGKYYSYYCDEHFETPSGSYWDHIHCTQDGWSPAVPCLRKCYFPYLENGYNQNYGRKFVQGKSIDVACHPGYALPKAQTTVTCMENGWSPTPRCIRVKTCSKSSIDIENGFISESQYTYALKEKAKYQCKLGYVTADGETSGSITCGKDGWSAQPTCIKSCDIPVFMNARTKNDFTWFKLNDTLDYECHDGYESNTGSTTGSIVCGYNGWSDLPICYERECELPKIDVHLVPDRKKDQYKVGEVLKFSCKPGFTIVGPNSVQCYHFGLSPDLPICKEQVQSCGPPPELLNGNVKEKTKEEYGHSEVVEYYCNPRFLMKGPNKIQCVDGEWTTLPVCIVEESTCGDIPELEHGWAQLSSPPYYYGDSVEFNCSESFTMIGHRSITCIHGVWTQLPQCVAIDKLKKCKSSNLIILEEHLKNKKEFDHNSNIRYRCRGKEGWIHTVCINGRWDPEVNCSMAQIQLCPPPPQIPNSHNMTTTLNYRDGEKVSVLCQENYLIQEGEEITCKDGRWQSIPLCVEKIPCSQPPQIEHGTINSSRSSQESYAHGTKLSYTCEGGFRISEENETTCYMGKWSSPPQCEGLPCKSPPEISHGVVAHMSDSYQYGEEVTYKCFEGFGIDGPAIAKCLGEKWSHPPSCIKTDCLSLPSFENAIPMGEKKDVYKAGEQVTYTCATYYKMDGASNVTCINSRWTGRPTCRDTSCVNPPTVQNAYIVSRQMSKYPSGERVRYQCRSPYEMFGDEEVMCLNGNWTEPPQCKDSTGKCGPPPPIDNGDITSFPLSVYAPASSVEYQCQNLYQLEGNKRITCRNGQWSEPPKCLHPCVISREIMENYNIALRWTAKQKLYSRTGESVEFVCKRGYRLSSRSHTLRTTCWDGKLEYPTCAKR
- ASSAY_REMARKS: ELISA, fHbp on plate
PROPERTY_MEASURED: binding result

fHbp ID 14 (natural variant, variant group 1, modular group I) (other, Recombinant) CSSGGGGVAADIGAGLADALTAPLDHKDKSLQSLTLDQSVRKNEKLKLAAQGAEKTYGNGDSLNTGKLKNDKVSRFDFIRQIEVDGQLITLESGEFQVYKQSHSALTALQTEQEQDPEHSGKMVAKRRFKIGDIAGEHTSFDKLPKDVMATYRGTAFGSDDAGGKLTYTIDFAAKQGHGKIEHLKSPELNVELATAYIKPDEKHHAVISGSVLYNQDEKGSYSLGIFGGQAQEVAGSAEVETANGIHHIGLAAKQ = binds
fHbp ID 28 E218A mutant (other, also called E218A (ID 28)) CSSGGGGSGGGGVAADIGTGLADALTAPLDHKDKGLKSLTLEDSIPQNGTLTLSAQGAEKTFKAGDKDNSLNTGKLKNDKISRFDFVQKIEVDGQTITLASGEFQIYKQNHSAVVALQIEKINNPDKTDSLINQRSFLVSGLGGEHTAFNQLPGGKAEYHGKAFSSDDPNGRLHYSIDFTKKQGYGRIEHLKTLEQNVELAAAELKADEKSHAVILGDTRYGSEAKGTYHLALFGDRAQEIAGSATVKIGEKVHEIGIAGKQ = binds
fHbp ID 28 E197A mutant (other) CSSGGGGSGGGGVAADIGTGLADALTAPLDHKDKGLKSLTLEDSIPQNGTLTLSAQGAEKTFKAGDKDNSLNTGKLKNDKISRFDFVQKIEVDGQTITLASGEFQIYKQNHSAVVALQIEKINNPDKTDSLINQRSFLVSGLGGEHTAFNQLPGGKAEYHGKAFSSDDPNGRLHYSIDFTKKQGYGRIEHLKTLEQNVELAAAALKADEKSHAVILGDTRYGSEEKGTYHLALFGDRAQEIAGSATVKIGEKVHEIGIAGKQ = binds
